Entries annotated with measured collision cross section (N2)
# EXPERIMENTAL_SETUP: [M+Na]+; instrument: DT; single field, calibrated with ESI Low Concentration Tuning Mix (Agilent)
TEST_READOUT: collision cross section (N2) (Å²)

INSERT INTO measurements (compound, units, result) VALUES
  ('O=C(O)C(CO)OP(=O)(O)O (stereo not given) [2-PHOSPHOGLYCERATE]', 'Å²', 141.9),
  ('NC(Cc1c[nH]c2ccc(O)cc12)C(=O)O (stereo not given) [5-HYDROXYTRYPTOPHAN]', 'Å²', 152.6),
  ('O=P(O)(O)OC[C@H]1OC(O)[C@@H](O)[C@@H](O)[C@@H]1O (stereo not given in full) [MANNOSE 6-PHOSPHATE]', 'Å²', 156.1),
  ('OC[C@@H](O)C(O)[C@H](O)CO [ARABITOL]', 'Å²', 135.8),
  ('CS(=N)(=O)CCC(N)C(=O)O (stereo not given) [METHIONINE SULFOXIMINE]', 'Å²', 138.1);

----------
# EXPERIMENTAL_SETUP: [M-H]-; instrument: TW; calibrated with phosphatidylcholines (ESI+) and phosphatidylethanolamines (ESI-)
TEST_READOUT: collision cross section (N2) (Å²)

INSERT INTO measurements (compound, test_readout, units, result) VALUES
  ('CCCCC/C=C\C/C=C\CCCCCCCCCC(=O)O[C@H](COC(=O)CCCCCCCCCCCCCC)COP(=O)(O)OC[C@@H](O)CO', 'collision cross section (N2)', 'Å²', 271.4),
  ('CCCCCCCCCCCCCCCCCCCCCC(=O)OC[C@H](COP(=O)(O)O)OC(=O)CCCCCCCCCCC', 'collision cross section (N2)', 'Å²', 257.6),
  ('CCCCCC/C=C\CCCCCCCC(=O)O[C@H](COC(=O)CCCCCCCCCCCCCC)COP(=O)(O)OC[C@@H](O)CO', 'collision cross section (N2)', 'Å²', 260.2),
  ('CCCCCCCCCCCCCCCC(=O)OC[C@H](COP(=O)(O)O[C@H]1C(O)C(O)C(O)[C@@H](O)C1O)OC(=O)CCCCCCCCCCCCCCC (some centres not stated)', 'collision cross section (N2)', 'Å²', 280.9),
  ('CCCCCCCCCCC=CCC=CCC(=O)OC[C@H](CO[C@@H]1O[C@H](CO[C@H]2O[C@H](CO)[C@H](O)C(O)C2O)[C@H](O)C(O)C1O)OC(=O)CC=CCC=CCCCCCCCCCC (some centres not stated)', 'collision cross section (N2)', 'Å²', 301.4),
  ('CCCCCC/C=C\CCCCCCCCCC(=O)OC(COC(=O)CCCCCCCCCCCCCCC)CO[C@@H]1O[C@@H](C(=O)O)[C@H](O)[C@H](O)[C@H]1O (some centres not stated)', 'collision cross section (N2)', 'Å²', 272.7),
  ('CCCCCCC/C=C\CCCCCCCC(=O)O[C@H](COC(=O)CCCCCCCCCCCC)COP(=O)(O)OC[C@@H](O)CO', 'collision cross section (N2)', 'Å²', 257.1),
  ('CCCCCCCCCCCCCCC(=O)O[C@H](COC(=O)CCCCCCCCCCCC)COP(=O)(O)OC[C@@H](O)CO', 'collision cross section (N2)', 'Å²', 253.1),
  ('CCCCCC/C=C\CCCCCCCC(=O)O[C@H](CO/C=C\CCCCCCCCCCCCCCCC)COP(=O)(O)OC[C@@H](O)CO', 'collision cross section (N2)', 'Å²', 268.6),
  ('CCCCCCCCCCCCCCCCCCCCC(=O)O[C@H](COC(=O)CCCCCCCCCCC)COP(=O)(O)O', 'collision cross section (N2)', 'Å²', 254.5),
  ('CCCCC/C=C\C/C=C\CCCCCCCCCCCC(=O)O[C@H](COC(=O)CCCCCCCCCCC)COP(=O)(O)OC[C@@H](O)CO', 'collision cross section (N2)', 'Å²', 268.1),
  ('CCC/C=C\C/C=C\CCCCCCCC(=O)O[C@H](CO/C=C\CCCCCCCCCCCCC)COP(=O)(O)OC[C@@H](O)CO', 'collision cross section (N2)', 'Å²', 256.8),
  ('CCCCCCCC=CCC=CCC=CCC(=O)OC[C@H](CO[C@@H]1O[C@H](CO[C@H]2O[C@H](CO)[C@H](O)C(O)C2O)[C@H](O)C(O)C1O)OC(=O)CC=CCC=CCC=CCCCCCCC (some centres not stated)', 'collision cross section (N2)', 'Å²', 296.1),
  ('CCCCCCCCCCCCCCCCCCCCC(=O)OC[C@H](COP(=O)(O)OC[C@@H](O)CO)OC(=O)CCCCCCCCCCC', 'collision cross section (N2)', 'Å²', 268.6),
  ('CCCCCCCCCCCCCCCC(=O)OCC(CO[C@@H]1O[C@@H](C(=O)O)[C@H](O)[C@H](O)[C@H]1O)OC(=O)CCCCCCCCCCCCCCC (some centres not stated)', 'collision cross section (N2)', 'Å²', 267.9),
  ('CCCCC/C=C\CCCCCCCC(=O)OC[C@H](COP(=O)(O)OC[C@@H](O)CO)OC(=O)CCCCCCC/C=C\CCCCCCCC', 'collision cross section (N2)', 'Å²', 264.5),
  ('CCCCCCCCCCCCCCCCCCCCC(=O)O[C@H](COC(=O)CCCCCCCCCCCCC)COP(=O)(O)O', 'collision cross section (N2)', 'Å²', 261),
  ('CCCCC/C=C\C/C=C\CCCCCCCC(=O)O[C@H](CO/C=C\CCCCCCCCCCCCCC)COP(=O)(O)OC[C@@H](O)CO', 'collision cross section (N2)', 'Å²', 266.6),
  ('CCCCCCCCCCCCCC=CCC(=O)OC[C@H](CO[C@@H]1O[C@H](CO[C@H]2O[C@H](CO)[C@H](O)C(O)C2O)[C@H](O)C(O)C1O)OC(=O)CC=CCCCCCCCCCCCCC (some centres not stated)', 'collision cross section (N2)', 'Å²', 301.9),
  ('CCCCCCCCCCCCCCCCC(=O)O[C@H](COC(=O)CCCCCCCCCCCCCC)COP(=O)(O)OC[C@@H](O)CO', 'collision cross section (N2)', 'Å²', 264.5),
  ('CCCCCCCCCCCCCCCC(=O)OCC(COP(=O)([O-])OCC(O)COC(=O)C(N)CCCC[NH3+])OC(=O)CCCCCCCCCCCCCCC (configuration not stated)', 'collision cross section (N2)', 'Å²', 291.5),
  ('CCCCCCCCC=CCC=CCC=CCC(=O)OC[C@H](CO[C@@H]1O[C@H](CO[C@H]2O[C@H](CO)[C@H](O)C(O)C2O)[C@H](O)C(O)C1O)OC(=O)CC=CCC=CCC=CCCCCCCCC (some centres not stated)', 'collision cross section (N2)', 'Å²', 303.3);

----------
Entries annotated with measured collision cross section (N2)
# EXPERIMENTAL_SETUP: [M+Na]+; instrument: DT; single field, calibrated with ESI Low Concentration Tuning Mix (Agilent)
TEST_READOUT: collision cross section (N2) (Å²)

INSERT INTO measurements (compound, units, result) VALUES
  ('OCC1(O)OC[C@@H](O)[C@@H](O)[C@@H]1O (stereo not given in full) [FRUCTOSE]', 'Å²', 141.5),
  ('CCCCCCCCCCCCCC(=O)OCC(COC(=O)CCCCCCCCCCCCC)OC(=O)CCCCCCCCCCCCC [GLYCERYL TRIMYRISTATE]', 'Å²', 291.4),
  ('N[C@@H](Cc1ccc(O)cc1)C(=O)O [TYROSINE]', 'Å²', 143.6),
  ('NC(=O)c1ccc[n+]([C@@H]2O[C@H](COP(=O)([O-])OP(=O)(O)OC[C@H]3O[C@@H](n4cnc5c(N)ncnc54)[C@H](O)[C@@H]3O)[C@@H](O)[C@H]2O)c1 [BETA-NICOTINAMIDE ADENINE DINUCLEOTIDE]', 'Å²', 222.7),
  ('CC(CCC(=O)O)C(=O)O (stereo not given) [2-METHYLGLUTARATE]', 'Å²', 137.4),
  ('Nc1ncnc2c1ncn2[C@@H]1O[C@H](COP(=O)(O)OP(=O)(O)O[C@H]2O[C@H](CO)[C@@H](O)[C@H](O)[C@H]2O)[C@@H](O)[C@H]1O [ADP-GLUCOSE]', 'Å²', 224.9),
  ('CO[C@@H]1O[C@H](CO)[C@H](O)[C@H](O)[C@H]1O [METHYL GALACTOSIDE]', 'Å²', 145.4),
  ('O=C(O)CCCCCCCC(=O)O [AZELATE]', 'Å²', 148.4),
  ('CN[C@H](CC(=O)O)C(=O)O [N-METHYLASPARTATE]', 'Å²', 134.7),
  ('O=C(O)CCCCCC(=O)O [6-CARBOXYHEXANOATE]', 'Å²', 140),
  ('C[n+]1cccc(C(=O)[O-])c1 [TRIGONELLINE]', 'Å²', 135.9),
  ('CCOC(=O)Cc1c[nH]c2ccccc12 [ETHYL 3-INDOLEACETATE]', 'Å²', 153.6),
  ('O=C(O)[C@H]1O[C@H](OP(=O)(O)OP(=O)(O)OC[C@H]2O[C@@H](n3ccc(=O)[nH]c3=O)[C@H](O)[C@@H]2O)[C@H](O)[C@@H](O)[C@@H]1O [URIDINE DIPHOSPHATE GLUCURONIC ACID]', 'Å²', 211),
  ('NC(=O)c1ccc[n+]([C@@H]2O[C@H](COP(=O)(O)OP(=O)(O)OC[C@H]3O[C@@H](n4cnc5c(=O)nc[nH]c54)[C@H](O)[C@@H]3O)[C@@H](O)[C@H]2O)c1 [NICOTINAMIDE HYPOXANTHINE DINUCLEOTIDE]', 'Å²', 229.7),
  ('CC(=O)NC(Cc1c[nH]c2ccccc12)C(=O)O (stereo not given) [N-ACETYLTRYPTOPHAN]', 'Å²', 158.5);

Reference for the values: the C3SDB collision cross section collection
